- System: E. aerogenes Ea-294, Ea-298
- protocol_summary: MIC (microdilution) against E. aerogenes strains devoid of AcrAB / TolC
- condition_label: Klebsiella aerogenes, read-out: MIC (in brackets)
result_type: MIC (µg/mL)
# output: bare number, implied unit µg/mL

Look over these answered cases.
[
  {
    "compound": "CC[C@H]1OC(=O)[C@H](C)[C@@H](O[C@H]2C[C@@](C)(OC)[C@@H](O)[C@H](C)O2)[C@H](C)[C@@H](O[C@@H]2O[C@H](C)C[C@H](N(C)C)[C@H]2O)[C@](C)(O)C[C@@H](C)C(=O)[C@H](C)[C@@H](O)[C@]1(C)O [Erythromycin]",
    "tgt": "E. aerogenes Ea-294, Ea-298",
    "reading": 4
  },
  {
    "compound": "CCn1cc(C(=O)O)c(=O)c2cc(F)c(N3CCNCC3)cc21 [Norfloxacin, norfloxacin]",
    "tgt": "E. aerogenes Ea-294, Ea-298",
    "reading": 16
  },
  {
    "compound": "O=C(N[C@H](CO)[C@H](O)c1ccc([N+](=O)[O-])cc1)C(Cl)Cl [Chloramphenicol]",
    "tgt": "E. aerogenes Ea-294, Ea-298",
    "reading": 64
  }
]

Query block: Give me measured MIC, please, for this compound: C[C@H]1c2cccc(O)c2C(=O)C2=C(O)[C@]3(O)C(=O)C(C(N)=O)=C(O)[C@@H](N(C)C)[C@@H]3[C@@H](O)[C@@H]21 [Doxycycline]
Result block: 2

* * *

- System: S. aureus ATCC 25923
- protocol_summary: Intrinsic antibacterial activity (MIC, microdilution) against reference S. aureus strain
- Format: cell-based
- condition_label: Staphylococcus aureus, ATCC25923; S. aureus ATCC 25923; compound alone; MH II broth; read-out: MIC Value
result_type: MIC (µM)
# unit: µM | format: bare number

Solved cases (4 shown):
[
  {
    "compound": "Cl.NC1=N/C(=C\\c2cccc(Oc3ccccc3)c2)C(=O)N1CCCN1CCOCC1",
    "MIC (µM)": 250
  },
  {
    "compound": "Cc1onc(-c2ccccc2)c1C(=O)N[C@@H]1C(=O)N2[C@@H]1SC(C)(C)[C@@H]2C(=O)O [Oxacillin, reference compound]",
    "MIC (µM)": 0.59
  },
  {
    "compound": "CN1CCN(CCCN2C(=O)/C(=C/c3c4ccccc4cc4ccccc34)N=C2N)CC1.Cl",
    "MIC (µM)": 500
  },
  {
    "compound": "CN1CCN(CCCN2C(=O)/C(=C/c3cccc4ccccc34)N=C2N)CC1.Cl",
    "MIC (µM)": 1000
  }
]

Query block: # assay system S. aureus ATCC 25923: give MIC of CN1CCN(CCCN2C(=O)/C(=C/c3ccc4ccccc4c3)N=C2N)CC1.Cl
Result block: 500

* * *

melting point overview

Reference set, count: 4
[
  {
    "compound": "CN1CCN(CCCN2C(=O)/C(=C/c3ccc(Cl)cc3)N=C2N)CC1.Cl (hydrate or solvate) [Compound 7]",
    "result_type": "melting point",
    "reading": "294 °C"
  },
  {
    "compound": "CN1CCN(CCCN2C(=O)/C(=C/c3ccc4ccccc4c3)N=C2N)CC1.Cl [Compound 9]",
    "result_type": "melting point",
    "reading": "215 to 217 °C"
  },
  {
    "compound": "CN1CCN(CCCN2C(=O)/C(=C/c3cc4ccccc4c4ccccc34)N=C2N)CC1.Cl [Compound 10]",
    "result_type": "melting point",
    "reading": "266 to 268 °C"
  },
  {
    "compound": "Cl.NC1=N/C(=C\\c2cccc(Oc3ccccc3)c2)C(=O)N1CCCN1CCOCC1 [Compound 17]",
    "result_type": "melting point",
    "reading": "227 to 230 °C"
  }
]

Query block: Please look at this compound and report its melting point: Cl.NC1=N/C(=C\c2c3ccccc3cc3ccccc23)C(=O)N1CCCN1CCOCC1 [Compound 16]
Result block: 244 to 246 °C

* * *

- protocol_summary: PAMPA membrane permeability (Pre-coated PAMPA Plate System Gentest)
- Assay type: in vitro ADME
- condition_label: 200 µM in PBS pH 7.4, room temperature, read-out: Pe ± SD
result_type: Papp at 5 h, 200 µM (×10⁻⁶ cm/s)
Reply with just the number (in ×10⁻⁶ cm/s).

Query block: Given the compound CN1CCN(CCCN2C(=O)/C(=C/c3ccc4ccccc4c3)N=C2N)CC1.Cl , write its reported Papp at 5 h, 200 µM.
Result block: 0.72

* * *

Entries and their measured melting point follow.

[
  {
    "compound": "CN1CCN(CCCN2C(=O)/C(=C/c3ccc(Oc4ccccc4)cc3)N=C2N)CC1 [Compound 12]",
    "melting point": "220 to 230 °C"
  },
  {
    "compound": "CN1CCN(CCCN2C(=O)/C(=C/c3c4ccccc4cc4ccccc34)N=C2N)CC1.Cl [Compound 11]",
    "melting point": "246 to 248 °C"
  },
  {
    "compound": "COc1ccc(/C=C2\\N=C(N)N(CCCN3CCN(C)CC3)C2=O)cc1.Cl (hydrate or solvate) [Compound 8]",
    "melting point": "262 °C"
  }
]

Please examine the following record next.
Query block: Identify measured melting point associated with CN1CCN(CCCN2C(=O)/C(=C/c3cccc4ccccc34)N=C2N)CC1.Cl [Compound 15]
Result block: 187 to 191 °C

* * *

- System: S. aureus ATCC 25923
- protocol_summary: Intrinsic antibacterial activity (MIC, microdilution) against reference S. aureus strain
- Assay type: cell-based
- condition_label: Staphylococcus aureus, ATCC25923; S. aureus ATCC 25923; compound alone; MH II broth; read-out: MIC Value
- Method: Initially, 12 arylideneimidazolone derivatives were evaluated in vitro for their intrinsic antibacterial effect against two strains of S. aureus: the reference strain S. aureus ATCC 25923 and extremely-drug resistant (XDR) MRSA HEMSA 5 clinical isolate. […] In addition, the antistaphylococcal efficacy of oxacillin, which was paired with compounds tested, in the following assays was also assessed (Table 3).
result_type: MIC

[
  {
    "smiles_data": "Cl.NC1=N/C(=C\\c2c3ccccc3cc3ccccc23)C(=O)N1CCCN1CCOCC1",
    "MIC": "> 125 µM"
  },
  {
    "smiles_data": "COc1ccc(/C=C2\\N=C(N)N(CCCN3CCN(C)CC3)C2=O)cc1.Cl",
    "MIC": "> 2000 µM"
  },
  {
    "smiles_data": "CN1CCN(CCCN2C(=O)/C(=C/c3cc4ccccc4c4ccccc34)N=C2N)CC1.Cl",
    "MIC": "> 125 µM"
  }
]

Query block: Quote S. aureus ATCC 25923 MIC for entry CN1CCN(CCCN2C(=O)/C(=C/c3ccc(Cl)cc3)N=C2N)CC1.Cl .
Result block: 500 to 1000 µM
